Target: CLK3 kinase (Homo sapiens, UniProt P49761)
Sequence (P49761 whole entry): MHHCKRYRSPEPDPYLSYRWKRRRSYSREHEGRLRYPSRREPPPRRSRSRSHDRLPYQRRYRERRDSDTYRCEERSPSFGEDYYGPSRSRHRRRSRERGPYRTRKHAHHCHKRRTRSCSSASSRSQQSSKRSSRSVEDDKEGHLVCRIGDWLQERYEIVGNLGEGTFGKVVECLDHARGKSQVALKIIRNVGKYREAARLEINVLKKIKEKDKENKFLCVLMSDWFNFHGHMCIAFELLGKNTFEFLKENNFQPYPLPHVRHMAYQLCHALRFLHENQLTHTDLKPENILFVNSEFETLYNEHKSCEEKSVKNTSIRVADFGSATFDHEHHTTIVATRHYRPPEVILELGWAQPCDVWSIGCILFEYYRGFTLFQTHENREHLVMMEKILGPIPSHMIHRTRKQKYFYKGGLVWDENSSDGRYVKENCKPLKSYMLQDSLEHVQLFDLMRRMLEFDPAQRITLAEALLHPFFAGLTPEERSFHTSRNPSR
Test: CLK3 kinase activity assay (Z-lyte FRET);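 also: kinase activity read as coumarin/fluorescein emission ratio by FRET, unphosphorylated peptide as 0% and phosphorylated peptide as 100% control, values from non-linear regression of dose-response curves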
Settings: Z-lyte Ser/Thr 18 peptide, 156 μM ATP, 1 h at room temperature
pEC50: −log10 of the molar value.
VALUE KIND: pEC50

Using the record for c1cncc(-c2cc3c(-c4nc5c(-c6cccnc6)cccc5[nH]4)n[nH]c3cn2)c1 [compound 179] , report its pEC50.
6.01

Try this compound too: CN(C)C1CN(c2ncc(C(=O)Nc3cc4cc(-c5cnn(C)c5)ccc4cn3)s2)C1 [compound 564]
7.43

# iterate: CN(C)Cc1cncc(-c2ccc3[nH]nc(-c4cc5c(-c6cccc(F)c6)nccc5[nH]4)c3c2)c1 [compound 308]
7.08

[I] CCCC(=O)Nc1cncc(-c2cc3c(-c4cc5c(-c6cc(F)cc(NCCN(C)C)c6)ccnc5[nH]4)n[nH]c3cn2)c1 [compound 512]
[II] CCC(=O)Nc1cncc(-c2cnc3[nH]nc(-c4nc5c(-c6ccc(F)cc6)cncc5[nH]4)c3c2)c1 [compound 160]
Thinking about recorded pEC50 values, which is higher, I or II ? Lab log: write the label of the selected item as the result.
II
(II: 7.43, I: 7.03)

[P] CC(C)NC(=O)c1n[nH]c2ccc(-c3cncc(NC4CCNCC4)n3)cc12 [compound 105]
[Q] CN1CCN(c2cc(C(=O)Nc3cc4cc(-c5cnn(C)c5)c(F)cc4cn3)ccn2)CC1 [compound 546]
[R] CC(C)CC(=O)Nc1cncc(-c2ccc3[nH]nc(-c4cc5c(N6CCN(C)CC6)ccnc5[nH]4)c3n2)c1 [compound 477]
Descending sort on pEC50 required. Use the labels to give the ranking in the order requested.
Q, R, P

[1] CC(C)OC(=O)N1CCC(n2cc(C(=O)Nc3cc4cc(-c5cnn(C)c5)ccc4cn3)cn2)CC1 [compound 562]
[2] CCC(=O)Nc1cncc(-c2cnc3[nH]nc(-c4cc5c(-c6cccc(F)c6)cncc5[nH]4)c3c2)c1 [compound 305]
[3] CC(C)(C)CC(=O)Nc1cncc(-c2ccc3[nH]nc(-c4nc5ccncc5[nH]4)c3c2)c1 [compound 202]
[4] CCC(=O)Nc1cncc(-c2cc3c(-c4cc5c(-c6cccc(F)c6)nccc5[nH]4)n[nH]c3cn2)c1 [compound 306]
Order the records, beginning with the lowest pEC50 and ending with the highest. Please respond by ranking the labels in the order requested.
4, 3, 2, 1
(4: 6.86, 3: 7.19, 2: 7.48, 1: 7.70)

###

Biological target: UniProt P49760
Sequence (P49760 whole entry): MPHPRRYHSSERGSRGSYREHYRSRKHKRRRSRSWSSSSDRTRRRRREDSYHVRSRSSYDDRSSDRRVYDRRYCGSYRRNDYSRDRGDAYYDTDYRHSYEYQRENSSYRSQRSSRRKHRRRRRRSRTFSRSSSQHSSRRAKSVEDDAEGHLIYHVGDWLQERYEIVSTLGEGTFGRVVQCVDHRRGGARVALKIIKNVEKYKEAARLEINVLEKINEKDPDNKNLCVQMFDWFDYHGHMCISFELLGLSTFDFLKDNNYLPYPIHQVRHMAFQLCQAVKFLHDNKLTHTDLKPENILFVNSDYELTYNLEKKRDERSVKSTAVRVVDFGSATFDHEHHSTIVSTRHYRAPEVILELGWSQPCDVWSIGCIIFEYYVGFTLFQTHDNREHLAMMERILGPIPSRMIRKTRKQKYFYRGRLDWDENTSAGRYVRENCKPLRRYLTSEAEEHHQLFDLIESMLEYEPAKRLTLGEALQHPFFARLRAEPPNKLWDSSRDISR
Test: CLK2 kinase activity assay (Z-lyte FRET);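 also: FRET read-out as coumarin to fluorescein emission ratio, unphosphorylated peptide as 0% and phosphorylated peptide as 100% controls, duplicate reactions, non-linear regression fit of dose-response curves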
Settings: Z-lyte Ser/Thr 6 peptide, 60 μM ATP, 1 h at room temperature
pEC50: −log10 of the molar value.
VALUE KIND: pEC50

The following compounds have reported results that may help.
Item: Nc1cncc(-c2ccc3[nH]nc(-c4cc5c(-c6cccnc6)nccc5[nH]4)c3c2)c1 [compound 347] Test system: UniProt P49760 Read-out: pEC50 Value: ?
8.70

Repeat with CN1CCN(c2cncc3[nH]c(-c4n[nH]c5ccc(-c6cncc(CNCc7ccccc7)c6)cc45)cc23)CC1 [compound 490]
8.52

Repeat with CCCC(=O)Nc1cncc(-c2ccc3[nH]nc(-c4cc5c(-c6ccncc6)cncc5[nH]4)c3c2)c1 [compound 383]
8.52

Then this compound: COc1cncc(-c2ccc3[nH]nc(-c4nc5c(-c6cccc(F)c6)cncc5[nH]4)c3n2)c1 [compound 149]
8.70

What do you have for CN(C)C1CN(c2ncc(C(=O)Nc3cc4cc(-c5cnn(C)c5)ccc4cn3)s2)C1 [compound 564] ?
8.70

[I] O=C(Nc1cccnc1)c1n[nH]c2ncc(-c3cccnc3)cc12 [compound 61]
[II] Cc1[nH]nc(C(=O)Nc2ccc(CN3CCCC3)cc2)c1/C=C/c1cccnc1 [compound 18]
[III] CC(C)C(=O)Nc1cncc(-c2ccc3[nH]nc(-c4cc5c(-c6cccnc6)cncc5[nH]4)c3c2)c1 [compound 349]
Hey, can you sort those compounds up there by pEC50, smallest first? Please write the labels in the order that was asked for.
II, I, III
(II: 7.70, I: 8.10, III: 8.70)
